Every entry's value here was drawn from ChEMBL document CHEMBL1201862.

System: NCI/ADR-RES
assay-text: NCI tumour cell line growth inhibition, 48 h
The source made the active and inactive calls. Rule as the data show it: active = GI50 up to about 1.1 µM and inactive = higher.
Your answer must be one of the following: active, inactive

CC(N)(/C=C/c1ccccc1)C(=O)O (stereo not drawn) :: inactive
CCC(c1ccc(N(C)C)cc1)C1NC(=S)NC1=O (stereo not drawn) :: inactive
CCCCCC/C=C/C#CCCCCCCCC(=O)O :: inactive
COc1ccc(-c2cc(=O)c3c(O)c(OC)c(OC)c(OC)c3o2)cc1OC [5-DEMETHYLNOBILETIN] :: inactive
O=C(/C=C1\Nc2ccccc2N\C1=C/C(=O)c1ccc(F)cc1)c1ccc(F)cc1 :: inactive

Q: // return assay outcome for "O=S(=O)(O)c1ccc(NN(c2c(O)ccc3ccccc23)S(=O)(=O)O)cc1"
Result: inactive

Q: Just curious, what result did NCC1OC(n2cnc3c(N)ncnc32)CC1O (stereo not drawn) get here?
Result: inactive

Q: Per the records of this test, what outcome belongs to "Cc1[nH]c2ncn(N)c(=N)c2c1Cc1ccccc1" ?
Result: inactive

Q: Could you please tell me the result logged for "Nc1ccc(Oc2ccc(C3(c4ccc(Oc5ccc(N)cc5)cc4)C4CC5CC(C4)CC3C5)cc2)cc1" in this assay?
Result: inactive

Q: Given O=C1c2c(O)ccc(O)c2C(=O)c2c(NCCNC(=O)C(O)C(O)C(O)C(O)CO)ccc(NCCNC(=O)C(O)C(O)C(O)C(O)CO)c21 (stereo not drawn) , state the outcome it received in this test.
Result: active

Q: Identify the outcome logged in this assay for the compound shown: CCCC(=O)OCC1OC(n2ccc(N)nc2=O)C(OC(=O)CCC)C1OC(=O)CCC (stereo not drawn)
Result: inactive

* * *

Test system: OVCAR-5
assay-text: NCI tumour cell line growth inhibition, 48 h
Active and inactive are the calls of the source. No stated cut-off is given here; in the data, active = GI50 up to about 1.1 µM and inactive = higher.
Quick list: GI50 per entry.

Q: Consider the compound "Cn1c2ccccc2c(=NNc2cccc(C(=O)O)c2)c2ccccc21" and give its measured GI50.
Result: 14.4 µM (inactive)

Q: Which GI50 value belongs to "CN(C)CCNS(=O)(=O)c1ccc(N)cc1" ?
Result: > 100 µM (inactive)

* * *

System: UACC-257
assay-text: NCI tumour cell line growth inhibition, 48 h
Calls of active or inactive are those of the source. Cut-off read from the data, not from the text of the source: active = GI50 up to about 1.1 µM and inactive = higher.
measured-parameter: GI50

COC12C=CC(CC1)C(C)(C)C2=O (centres undefined) :: > 100 µM (inactive)

Q: Field request: GI50 | item: "COc1ccccc1/N=N/C(=N/NC(=O)c1ccc(C)cc1)c1ccc(N(CCC#N)CCC#N)cc1OC"
Result: 38.3 µM (inactive)

Q: Given the entry "O=C1[C@@H]2C(c3ccccc3[N+](=O)[O-])=[N+](c3ccccc3)O[C@@H]2C(=O)N1c1ccc(Cc2ccc(N3C(=O)[C@H]4C(c5ccccc5[N+](=O)[O-])=[N+](c5ccccc5)O[C@H]4C3=O)cc2)cc1" , report its measured GI50.
Result: > 100 µM (inactive)

Q: Consider the compound "O=C(O)C12CC3(C(=O)O)CC(C(=O)O)(CC(C(=O)O)(C1)C3=O)C2=O" and give its measured GI50.
Result: > 100 µM (inactive)

* * *

Tested on: BT-549
assay-text: NCI tumour cell line growth inhibition, 48 h
Active and inactive are the calls of the source. No stated cut-off is given here; in the data, active = GI50 up to about 1.1 µM and inactive = higher.
measured-parameter: GI50

# count of solved cases: 4
CN(/N=C/c1cccc2cccnc12)c1ccc(Cl)cc1[N+](=O)[O-] :: > 100 µM (inactive)
O=C(O)C12CC3(C(=O)O)CC(C(=O)O)(CC(C(=O)O)(C1)C3=O)C2=O :: > 100 µM (inactive)
COc1ccc(/C=C/C(=N/NC(=O)N/N=C(/C=C/c2ccc(OC)cc2)C(C)C)C(C)C)cc1 :: > 100 µM (inactive)
COC(=O)Cc1cccc2c(=O)c(S(=O)(=O)NC(=O)Nc3ccc(Cl)cc3)c(-c3ccccc3)oc12 :: 55.6 µM (inactive)

Q: Entry "Oc1[nH]c(Nc2cccc(Cl)c2)nc2ncnc1-2" : reported GI50 = ?
Result: > 100 µM (inactive)

Q: So what's the measured GI50 for this one? "O=c1oc2ccccc2cc1-c1cn2ccccc2n1"
Result: 11.9 µM (inactive)

Q: Which GI50 is listed for "O=C(O)c1cc(O)nc(S)n1" ?
Result: > 100 µM (inactive)

Q: Looking for the measured GI50 of "CO/C=C(/C(=O)OC)c1ccccc1Oc1c(F)c(F)c(F)c(F)c1F" , can you help?
Result: > 100 µM (inactive)

Q: Any idea what its GI50 is? The molecule is COc1cccc(C2c3cc4c(cc3OC(C)(O)C2C)OCO4)c1O (stereo not given)
Result: 9.71 µM (inactive)

Q: Look up GI50: "O=S(=O)(O)c1ccc(NN(c2c(O)ccc3ccccc23)S(=O)(=O)O)cc1"
Result: > 100 µM (inactive)
